test system: GALAP (Galium aparine); experiment: Postemergence herbicidal evaluation; format: in vivo; settings: postemergence, rate 0.0320 kg/ha
Measurement kind: GALAP herbicidal rating
No unit in the answer, please; the number alone is enough.

1) CCCC1COC(c2nsc3ccc(-n4c(=O)cc(C(F)(F)F)n(C)c4=O)cc23)O1 (stereo not shown) ... 4.0
2) Cn1c(C(F)(F)F)cc(=O)n(-c2ccc3snc(C4OCC(c5ccccc5)O4)c3c2)c1=O (stereo not shown) ... 4.0
3) Cn1c(C(F)(F)F)cc(=O)n(-c2ccc3snc(-c4sccc4CO)c3c2)c1=O ... 4.0
4) CC1=CC(C)(C)OC(c2nsc3ccc(-n4c(=O)cc(C(F)(F)F)n(C)c4=O)cc23)C1 (stereo not shown) ... 5.0
5) C[C@@H]1C[C@H](C)OC(c2nsc3ccc(-n4c(=O)cc(C(F)(F)F)n(C)c4=O)cc23)O1 (stereo partly shown) [Compound 50] ... 3.0

// Cc1cnn(-c2nsc3ccc(-n4c(=O)cc(C(F)(F)F)n(C)c4=O)cc23)c1 : GALAP herbicidal rating value = 0.0

// Cn1c(C(F)(F)F)cc(=O)n(-c2ccc3snc(-c4sccc4CBr)c3c2)c1=O : GALAP herbicidal rating value = 3.0

---

Listing: herbicidal rating, CYPSE of selected compounds
Test system: CYPSE (Cyperus serotinus)
Assay: Flooded paddy, preemergence weed control
Format: in vivo, Rottb.
Conditions: rate 0.1250 kg/ha, rated 3-4 weeks after treatment, 0-9 rating scale
Description: Results of herbicide evaluation are expressed on a rating scale (0-9). The scale is based upon a visual observation of plant stand, vigor, malformation, size, chlorosis and overall plant appearance as compared with a control. Preemergence herbicidal activity under flooded paddy conditions is determined as follows: plant seeds or propagating organs are planted in the top 0.5 cm of silt loam soil in 32 oz. plastic containers with a diameter of 10.5 cm and no drainage holes. […]
No unit in the answer, please; the number alone is enough.

Study these solved cases before continuing.
1) Cc1cccnc1-c1nsc2cc(F)c(N3C(=O)C4=C(CCCC4)C3=O)cc12 ... 0.0
2) Cn1c(C(F)(F)F)cc(=O)n(-c2ccc3c(c2)C(c2cccc[n+]2[O-])=NS3(=O)=O)c1=O ... 0.0

CYPSE (Cyperus serotinus) data for Cn1c(C(F)(F)F)cc(=O)n(-c2ccc3snc(-c4ncccn4)c3c2)c1=O ; its herbicidal rating, CYPSE: 7.0

---

Listing: herbicidal rating, CYPSE of selected molecules
tested on: CYPSE (Cyperus serotinus); assay: Flooded paddy, preemergence weed control; assay type: in vivo, Rottb.; conditions: rate 0.1250 kg/ha, rated 3-4 weeks after treatment, 0-9 rating scale

1. CC(=O)N1CCSC1c1nsc2ccc(-n3c(=O)cc(C(F)(F)F)n(C)c3=O)cc12 (centres unmarked) [Compound 29] ... 6.0
2. Cn1c(C(F)(F)F)cc(=O)n(-c2ccc3snc(-c4ccsc4)c3c2)c1=O [Compound 1] ... 9.0
3. C#CCOC(=O)COc1ccsc1-c1nsc2ccc(-n3c(=O)cc(C(F)(F)F)n(C)c3=O)cc12 [Compound 39] ... 0.0

CYPSE (Cyperus serotinus) data for CC1CC(C)(C)OC(c2nsc3ccc(-n4c(=O)cc(C(F)(F)F)n(C)c4=O)cc23)O1 (centres unmarked) [Compound 55] ; its herbicidal rating, CYPSE: 9.0

CYPSE (Cyperus serotinus) data for Cn1c(C(F)(F)F)cc(=O)n(-c2ccc3snc(C4OC(C)(C)C(C)(C)O4)c3c2)c1=O [Compound 56] ; its herbicidal rating, CYPSE: 9.0

CYPSE (Cyperus serotinus) data for C[C@@H]1C[C@H](C)OC(c2nsc3ccc(-n4c(=O)cc(C(F)(F)F)n(C)c4=O)cc23)O1 (some centres unmarked) [Compound 50] ; its herbicidal rating, CYPSE: 7.0

CYPSE (Cyperus serotinus) data for Cc1ccn(-c2nsc3ccc(-n4c(=O)cc(C(F)(F)F)n(C)c4=O)cc23)n1 [Compound 38] ; its herbicidal rating, CYPSE: 9.0

CYPSE (Cyperus serotinus) data for Cc1cccnc1-c1nsc2ccc(-n3c(=O)cc(C(F)(F)F)n(C)c3=O)cc12 [Compound 19] ; its herbicidal rating, CYPSE: 6.5

---

tested on: ORYSAT (Rice, Tebonnet); experiment: Flooded paddy, post-transplant and postemergence rice tolerance; format: in vivo, Oryza sativa, (L.) Tebonnet; conditions: 0.0620 kg/ha into flood water; post-transplant rice; rated 3-4 weeks after treatment
Listing: herbicide rating (0-9) ORYSAT (rice tolerance) of selected compounds
No unit in the answer, please; the number alone is enough.

Study these solved cases before continuing.
1) Cn1c(C(F)(F)F)cc(=O)n(-c2cc3c(C4OCCO4)nsc3cc2F)c1=O [Compound 61] ... 9.0
2) Cn1c(C(F)(F)F)cc(=O)n(-c2ccc3snc(-c4nccs4)c3c2)c1=O [Compound 53] ... 4.0
3) Cn1c(C(F)(F)F)cc(=O)n(-c2ccc3snc(-c4ccsc4)c3c2)c1=O [Compound 1] ... 7.0
4) Cn1c(C(F)(F)F)cc(=O)n(-c2ccc3snc(C4OC(C)(C)C(C)(C)O4)c3c2)c1=O [Compound 56] ... 7.0
5) Cc1cscc1-c1nsc2ccc(-n3c(=O)cc(C(F)(F)F)n(C)c3=O)cc12 [Compound 26] ... 5.0
6) Cc1cc(C)c(-c2nsc3ccc(-n4c(=O)cc(C(F)(F)F)n(C)c4=O)cc23)s1 [Compound 27] ... 4.0
7) Cc1ccc(-c2nsc3ccc(-n4c(=O)cc(C(F)(F)F)n(C)c4=O)cc23)s1 [Compound 21] ... 7.0
8) COC(=O)COc1ccsc1-c1nsc2ccc(-n3c(=O)cc(C(F)(F)F)n(C)c3=O)cc12 [Compound 22] ... 0.0

ORYSAT (Rice, Tebonnet) data for Cn1c(C(F)(F)F)cc(=O)n(-c2ccc3snc(-c4sccc4Cl)c3c2)c1=O [Compound 52] ; its herbicide rating (0-9) ORYSAT (rice tolerance): 6.0

ORYSAT (Rice, Tebonnet) data for CCc1cc(-c2nsc3ccc(-n4c(=O)cc(C(F)(F)F)n(C)c4=O)cc23)c(CC)s1 [Compound 8] ; its herbicide rating (0-9) ORYSAT (rice tolerance): 2.0

---

Listing: herbicidal rating, CYPIR of selected molecules
system: CYPIR (Cyperus iria); assay: Flooded paddy, preemergence weed control; format: in vivo; settings: rate 0.1250 kg/ha, rated 3-4 weeks after treatment, 0-9 rating scale

Study these solved cases before continuing.
1) CSCC1COC(c2nsc3ccc(-n4c(=O)cc(C(F)(F)F)n(C)c4=O)cc23)O1 (centres unmarked) ... 6.0
2) Cn1cccc1-c1nsc2ccc(-n3c(=O)cc(C(F)(F)F)n(C)c3=O)cc12 ... 9.0
3) COCC1COC(c2nsc3ccc(-n4c(=O)cc(C(F)(F)F)n(C)c4=O)cc23)O1 (centres unmarked) ... 9.0
4) CCOc1cc(OCC)nc(-c2nsc3ccc(-n4c(=O)cc(C(F)(F)F)n(C)c4=O)cc23)n1 ... 5.0
5) C[C@@H]1OC(c2nsc3cc(F)c(-n4c(=O)cc(C(F)(F)F)n(C)c4=O)cc23)O[C@@H]1C (some centres unmarked) [Compound 63] ... 9.0

// CCc1cc(-c2nsc3ccc(-n4c(=O)cc(C(F)(F)F)n(C)c4=O)cc23)c(CC)s1 : herbicidal rating, CYPIR value = 9.0

// Cc1cc(C)c(-c2nsc3ccc(-n4c(=O)cc(C(F)(F)F)n(C)c4=O)cc23)s1 : herbicidal rating, CYPIR value = 9.0

// Cc1cscc1-c1nsc2ccc(-n3c(=O)cc(C(F)(F)F)n(C)c3=O)cc12 : herbicidal rating, CYPIR value = 9.0

// C[C@@H]1OC(c2nsc3cc(F)c(-n4c(=O)cc(C(F)(F)F)n(C)c4=O)cc23)O[C@@H]1C (some centres unmarked) [Compound 66] : herbicidal rating, CYPIR value = 9.0

// Cn1c(C(F)(F)F)cc(=O)n(-c2ccc3snc(C4OCC(C)(C)CO4)c3c2)c1=O : herbicidal rating, CYPIR value = 9.0

// C[C@@H]1C[C@H](C)OC(c2nsc3ccc(-n4c(=O)cc(C(F)(F)F)n(C)c4=O)cc23)O1 (some centres unmarked) : herbicidal rating, CYPIR value = 8.0

// C=C1COC(c2nsc3ccc(-n4c(=O)cc(C(F)(F)F)n(C)c4=O)cc23)OC1 : herbicidal rating, CYPIR value = 9.0

// Cc1ccsc1-c1nsc2ccc(-n3c(=O)cc(C(F)(F)F)n(C)c3=O)cc12 : herbicidal rating, CYPIR value = 9.0

// Cn1c(C(F)(F)F)cc(=O)n(-c2ccc3snc(-c4cccs4)c3c2)c1=O : herbicidal rating, CYPIR value = 9.0

// Cn1c(C(F)(F)F)cc(=O)n(-c2ccc3snc(-c4sccc4CO)c3c2)c1=O : herbicidal rating, CYPIR value = 6.0

// Cc1ccn(-c2nsc3ccc(-n4c(=O)cc(C(F)(F)F)n(C)c4=O)cc23)n1 : herbicidal rating, CYPIR value = 9.0

// Cn1c(C(F)(F)F)cc(=O)n(-c2ccc3snc(C4OCC(CO)O4)c3c2)c1=O (centres unmarked) : herbicidal rating, CYPIR value = 9.0

// CC(=O)N1CCSC1c1nsc2ccc(-n3c(=O)cc(C(F)(F)F)n(C)c3=O)cc12 (centres unmarked) : herbicidal rating, CYPIR value = 9.0

// Cc1cccnc1-c1nsc2cc(F)c(N3C(=O)C4=C(CCCC4)C3=O)cc12 : herbicidal rating, CYPIR value = 3.0

// Cc1ccc(-c2nsc3ccc(-n4c(=O)cc(C(F)(F)F)n(C)c4=O)cc23)s1 : herbicidal rating, CYPIR value = 9.0

// Cn1c(C(F)(F)F)cc(=O)n(-c2ccc3snc(C4OCC5(CO4)CO5)c3c2)c1=O (centres unmarked) : herbicidal rating, CYPIR value = 0.0

// Cn1c(C(F)(F)F)cc(=O)n(-c2ccc3snc(C4OCCS4)c3c2)c1=O (centres unmarked) : herbicidal rating, CYPIR value = 9.0

// C[C@H]1O[C@@H]1c1nsc2ccc(-n3c(=O)cc(C(F)(F)F)n(C)c3=O)cc12 : herbicidal rating, CYPIR value = 9.0
